target: T1, BSA-conjugated Aβ heptapeptide VFFAEDC (C-terminal Cys coupled to NSMP-activated BSA); test: ELISA;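 further: ELISA binding of human antibody (10 or 2 µg/ml) to plate-coated BSA–peptide conjugates, detected with HRP anti-human Ig and TMB colour, mock-treated BSA as negative control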
T1 construct: also called Peptide 18-23
T1 peptide: VFFAEDC
Property label: Peptide-ratio 18-23/2-7
// print number alone

q: # return recorded Peptide-ratio 18-23/2-7 for entry MS-R #7.12 IgG1 (antibody, V domains shown, full-length human IgG1) VH: QVELVESGGGLVQPGGSLRLSCAASGFTFSSYGMSWVRQAPGKGLEWVSNISGSGSSTYYADSVKGRFTISRDNSKNTLYLQMNSLRAEDTAVYYCARGKGNTHKPYGYVRYFDVWGQGTLVTVSS VL: DIVLTQSPATLSLSPGERATLSCRASQYVSSPYLAWYQQKPGQAPRLLISGSSNRATGVPARFSGSGSGTDFTLTISSLEPEDFAVYYCLQLYNIPNTFGQGTKVEIKR
a: 0.68
